Target: T1, his-tagged human BCMA protein (ACROBiosystems, catalog # BCA-H522y-100 ug) (human, UniProt Q02223 1-54)
T1 construct: limits of the bought construct are not otherwise stated; also called recombinant his-tagged human BCMA; not shown: his tag of the bought protein
T1 sequence: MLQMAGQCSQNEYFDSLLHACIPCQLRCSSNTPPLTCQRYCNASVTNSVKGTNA
Assay: SPR (Biacore T200), antibody captured on anti-human Fc, his-tagged human BCMA as analyte; fit with ka1/kd1/ka2/kd2 (model not named)
readout-name: pKd
Just so you know, pKd here is -log10 of the concentration in molar units; reply with that number alone.

Query: Can you share its pKd? I mean this binder: BCA7-2E1 antibody (antibody, V domains shown, also called BCA-2E1) VH: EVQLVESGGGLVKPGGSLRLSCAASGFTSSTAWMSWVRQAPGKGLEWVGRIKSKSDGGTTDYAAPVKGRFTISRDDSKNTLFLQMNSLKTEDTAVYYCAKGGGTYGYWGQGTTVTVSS VL: QSALTQPASVSGSPGQSVTISCTGTSSDGGGHTYVSWYQQHPGKAPKLMIYDVSNRPSWVSNRFSGSKSGNTASLTISGLQAEDEADYYCGSYTSSGSYVFGTGTKLTVL
Reply: 7.69

Query: May I ask what pKd has been recorded for BCA7-2C5 antibody (antibody, V domains shown) VH: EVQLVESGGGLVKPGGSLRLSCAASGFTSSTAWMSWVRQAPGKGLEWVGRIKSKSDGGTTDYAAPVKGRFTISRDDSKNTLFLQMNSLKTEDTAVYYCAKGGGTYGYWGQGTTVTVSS VL: QSALTQPASVSGSPGQSVTISCTGTSSAHGGHYYVSWYQQHPGKAPKLMIYDVSNRPSGVSNRFSGSKSGNTASLTISGLQAEDEADYYCGSYTSSGSYVFGTGTKLTVL ?
Reply: 7.71

Query: Which pKd value belongs to BCA7-2G2 antibody (antibody, V domains shown) VH: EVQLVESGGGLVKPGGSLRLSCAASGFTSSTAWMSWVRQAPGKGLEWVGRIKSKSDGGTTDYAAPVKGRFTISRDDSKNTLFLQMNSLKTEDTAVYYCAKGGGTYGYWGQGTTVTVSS VL: QSVLTQPASVSGSPGQSVTISCTGTSSSVGGRQYVSWYQQHPGKAPKLMIYDVSNRPSGVSNRFSGSKSGNTASLTISGLQAEDEADYYCGSYTSSGSYVFGTGTKLTVL ?
Reply: 7.27
